# ASSAY_DETAILS: qHTS Assay for NPC1 Promoter Activators: Hit Validation Using Renila Luciferase Read-Out for NPC1
# ASSAY_SETUP: Huh7 NPC1 promoter-luciferase reporter, luminescence, 24 h; series mostly up to 76.9 µM
Records with an inconclusive call do not appear. The source made the active and inactive calls. The call rests on the fitted dose curve; in most records, active means well fitted activation curve with a large enough effect; inconclusive means small, poorly fitted or top-dose-only effect; inactive means no such curve, though single readings can be large or run the other way.
Allowed answers: active, inactive

// known answers, use as guide
Cc1ccc(N=Cc2sc(O)c3ccccc23)c(C)c1	inactive
CC(=O)Nc1nnc(SCC(=O)NCCOc2ccccc2)s1	inactive

For this compound, state the assay outcome: Cc1ccc(S(=O)(=O)/N=C(/Nc2ccccn2)c2ccc(Cl)cc2)cc1
active

How did this test come out for COCCNC(=O)CN1C(=O)NC(c2ccccc2)(c2ccccc2)C1=O ?
inactive

Would you mind telling me which call this test gave Cn1c(CCN2CCN(c3ccccc3)CC2)nc2cc(NC(=O)c3ccco3)ccc21 ?
inactive

What outcome does the record of this test show for Nc1c(N(CCO)C(=O)/C=C/c2ccco2)c(=O)[nH]c(=O)n1Cc1ccccc1 ?
inactive

Which outcome was assigned to COc1cccc(CNC(=O)CN(c2cc(C)cc(C)c2)S(=O)(=O)c2c(C)noc2C)c1 in this test?
inactive

Assay outcome for COc1ccccc1OCCCC(=O)NCc1ccco1 : what was it?
inactive

Assay outcome for CC1CN(C(=O)c2ccncc2)CC(C)O1 (stereo unspecified) : what was it?
inactive

Hello, I am checking results. What call was entered for O=C(CSc1nnc(-c2ccccn2)o1)Nc1ccccc1F ?
inactive

Fill in: this test's call for COc1ccc(-n2c(N)c(C(=O)NCc3ccco3)sc2=S)cc1 is ___
inactive

Hello, the source for this data is PubChem BioAssay AID720526, in case you need it.
